Source: ChEMBL document CHEMBL4196161

assayed_system: GRIA1/CACNG8 (Homo sapiens, UniProt P42261+Q8WXS5)
Sequence (P42261 whole entry, canonical isoform): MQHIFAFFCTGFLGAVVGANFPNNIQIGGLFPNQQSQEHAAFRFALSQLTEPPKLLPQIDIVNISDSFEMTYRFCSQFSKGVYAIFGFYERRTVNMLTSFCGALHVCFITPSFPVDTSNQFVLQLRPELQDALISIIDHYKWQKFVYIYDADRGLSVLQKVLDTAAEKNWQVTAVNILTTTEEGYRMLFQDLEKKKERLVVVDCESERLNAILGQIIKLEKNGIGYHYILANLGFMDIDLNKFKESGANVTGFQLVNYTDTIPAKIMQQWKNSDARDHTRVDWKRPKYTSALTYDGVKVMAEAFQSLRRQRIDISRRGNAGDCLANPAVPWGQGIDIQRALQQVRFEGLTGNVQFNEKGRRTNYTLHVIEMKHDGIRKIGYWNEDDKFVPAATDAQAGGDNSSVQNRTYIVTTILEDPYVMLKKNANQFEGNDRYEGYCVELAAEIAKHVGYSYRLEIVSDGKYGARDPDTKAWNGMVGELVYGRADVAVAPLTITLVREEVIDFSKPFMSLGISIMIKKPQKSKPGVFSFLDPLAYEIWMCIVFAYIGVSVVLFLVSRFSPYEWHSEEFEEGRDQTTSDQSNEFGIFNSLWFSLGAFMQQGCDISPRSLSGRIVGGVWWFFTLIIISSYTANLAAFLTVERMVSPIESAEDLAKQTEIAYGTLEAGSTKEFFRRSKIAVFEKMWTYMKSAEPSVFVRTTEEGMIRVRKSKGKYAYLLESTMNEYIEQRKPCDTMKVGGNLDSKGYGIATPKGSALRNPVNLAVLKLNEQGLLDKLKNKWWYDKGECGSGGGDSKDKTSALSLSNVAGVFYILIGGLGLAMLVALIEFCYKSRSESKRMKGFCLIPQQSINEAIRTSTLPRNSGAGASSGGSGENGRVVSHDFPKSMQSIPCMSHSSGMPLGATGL
Sequence (Q8WXS5 whole entry, canonical isoform): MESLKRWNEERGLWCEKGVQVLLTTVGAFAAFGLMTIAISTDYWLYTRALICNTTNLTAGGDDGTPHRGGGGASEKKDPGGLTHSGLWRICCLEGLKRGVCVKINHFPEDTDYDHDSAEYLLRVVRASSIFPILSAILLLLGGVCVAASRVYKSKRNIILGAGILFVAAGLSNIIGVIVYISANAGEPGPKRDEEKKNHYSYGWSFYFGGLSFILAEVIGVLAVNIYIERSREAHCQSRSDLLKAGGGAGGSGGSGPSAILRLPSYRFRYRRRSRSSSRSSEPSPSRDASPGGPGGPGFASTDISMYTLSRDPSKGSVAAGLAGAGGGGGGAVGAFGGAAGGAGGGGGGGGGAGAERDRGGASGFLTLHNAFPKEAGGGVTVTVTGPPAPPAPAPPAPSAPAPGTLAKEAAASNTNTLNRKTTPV
method_notes: Modulation of recombinant human GluA1 flop isoform/TARPgamma8 expressed in HEK293F cells assessed as blockade of glutamate-induced calcium flux by calcium 5/6 dye based FLIPR assay
measurement_label: pIC50
pIC50 here is simply -log10 of the concentration when that concentration is written in mol/L.

The cases that follow already have their pIC50 on record.
| smiles_str | pIC50 |
| --- | --- |
| O=C1Cc2cc(-c3c(Cl)cccc3OC(F)(F)F)cc(F)c2N1 | 8.60 |
| O=c1[nH]c2ccc(-c3c(Cl)cncc3Cl)cc2[nH]1 | 6.60 |

Using the record for Cc1cccc(Cl)c1-c1ccc2[nH]c(=O)[nH]c2c1 , report its pIC50.
7.30

Using the record for COc1cccc(Cl)c1-c1ccc2[nH]c(=O)[nH]c2c1 , report its pIC50.
6.90

Using the record for Cc1cc(-c2c(Cl)cncc2OC(F)(F)F)cc2c1NC(=O)C2 , report its pIC50.
8.60

Using the record for O=c1[nH]c2ccc(-c3c(Cl)cccc3OC(F)(F)F)cc2o1 , report its pIC50.
5.60

Using the record for Cc1ccccc1-c1ccc2c(c1)CC(=O)N2 , report its pIC50.
5.60
